The values you see were collected from PubChem BioAssay AID624491.

Measured AC26 values are reported for all entries that follow.
Tested on: D54 ERlucT glycosylation luciferase reporter, luminescence, 24 h
Experiment: N-linked glycosylation inhibitors, luciferase reporter, dose response, D54 ERlucT cells, luminescence, cherry-picks (AID 624491);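 further: signal gain reflects blocked N-linked glycosylation of a luciferase reporter; actives raise luciferase signal so AC26 marks activators of the reporter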

| compound | AC26 |
| --- | --- |
| O=C(c1ccc(CS(=O)c2ccccc2Cl)o1)N1CCN(c2ccccn2)CC1 (configuration not stated) | 5990 nM |
| COc1cccc(C(NC(C)=O)c2nc(-c3ccc(F)cc3OC)cs2)c1 (configuration not stated) | 105 nM |
| CC(=O)Nc1ccc(-c2ccnc3c2CC(C(=O)NCc2cccc(Cl)c2)O3)cc1 (configuration not stated) | 540 nM |
| CCOC(=O)c1ccc(Oc2cc(C)nc(SC)n2)cc1 | 1720 nM |
| COc1ccc(OC)c(Nc2cc3ccccc3c(=O)[nH]2)c1 | 207 nM |
| CC(=O)Nc1ccc(CC(=O)NCCC(c2ccccc2)c2ccccc2)cc1 | 11300 nM |
| COc1cc(C(=O)NC2CCN(C)CC2)ccc1Nc1ncc2c(n1)N(CCc1ccccc1)CCC(=O)N2C | 396 nM |
| CC(Nc1nc(-c2ccccc2)nc2ccccc12)c1ccccc1 (configuration not stated) | 80.3 nM |
| COC(=O)c1ccccc1NC(=O)Cn1c(-c2nonc2N)nc2ccccc21 | 120 nM |
| O=C(C[C@@H]1C/C=C/CC[C@H](Cc2ccc(F)cc2)C(=O)OC[C@@H](Cc2ccccc2)NC1=O)N[C@H](CO)Cc1ccccc1 | 4880 nM |
| CN(C)CCNC(=O)c1cccc2[nH]c(-c3ccncc3)nc12 | 894 nM |
| COc1ccc(S(=O)(=O)Nc2cc3c(cc2C(C)=O)OCO3)cc1 | 5560 nM |
| COc1ccc(Cl)cc1NC(=O)Nc1ccc(C(=O)N2CCCC2)cc1 | 4030 nM |
| COc1cccc(N2CCN(C(=O)c3[nH]c(C)c(C(C)=O)c3C)CC2)c1 | 1680 nM |
| CC1CCC2(CC1)NC(=O)N(CC(=O)Nc1ccc3c(c1)CCC3)C2=O (configuration not stated) | 826 nM |
| COc1cc(OC)c(N2CC(C(=O)Nc3cc(Cl)ccc3N3CCOCC3)CC2=O)cc1Cl (configuration not stated) | 3310 nM |
| COc1cc(OC)cc(C(=O)c2c(C)c(C#N)c3ccccn23)c1 | 1220 nM |
| CN1CCN(CC(=O)Nc2cc(N(C)C)nc3ccccc23)CC1 | 6650 nM |
| CCCCN(CC)CCCNC(=O)c1cc2c(=O)n(C)c3ccccc3c2n1C | 3310 nM |
| CCOC(=O)C1=CC[C@@H](c2ccncc2)N(S(=O)(=O)c2ccc(C)cc2)C1 | 12100 nM |
| c1cc2c3c(cccc3c1)C(N1CCCCC1)=N2 | 13700 nM |
| COc1cc2[nH]c(C(=O)Nc3ccc(F)cc3)cc2c(OC)c1OC | 742 nM |
| CC(=O)c1cccc(NC(=O)CSc2ncc(C(=O)Nc3ccccc3)c(=O)n2C)c1 | 1350 nM |
| COc1cc2ccccc2cc1C(=O)N/N=C/c1cccs1 | 232 nM |
| COC(=O)CNC(c1ccccc1)c1cc(Br)ccc1NC(=O)CCN1CCOCC1 (configuration not stated) | 4810 nM |
| CC(=O)NC(=C(Cl)Cl)S(=O)(=O)c1ccccc1 | 1080 nM |
| CC(=O)N1N=C(c2ccc(NS(=O)(=O)c3ccccc3)cc2)CC1c1ccco1 (configuration not stated) | 912 nM |
| COc1ccc(C2=NOC(C(=O)NCc3cccs3)C2)cc1 (configuration not stated) | 1010 nM |
| O=c1[nH]c(=O)c2nc3c4ccccc4c4ccccc4c3nc2[nH]1 | 392 nM |
| Cc1ccc(C(=O)N/C(=C/c2cccs2)C(=O)NCCc2c[nH]c3ccccc23)cc1 | 1080 nM |
| CCN(CC)c1ccc(/C=N\NC(=O)c2cccc3cc[nH]c23)cc1 | 1860 nM |
| COc1cc(C(=O)NC2CCN(C)CC2)ccc1Nc1ncc2c(n1)N(C1CCCCC1)CCC(=O)N2C | 11.3 nM |
| CC1(C(=O)NCc2ccco2)Cc2c(-c3cccc(C(F)(F)F)c3)ccnc2O1 (configuration not stated) | 7710 nM |
| O=C(CCl)Nc1cccc(S(=O)(=O)NC2=NCCC2)c1 | 939 nM |
| CC[C@H](C)[C@@H](NC(=O)O[C@@H]1C(=O)c2cc(OC)ccc2O[C@H]1c1ccc(OC)c(Br)c1)C(=O)OC | 335 nM |
| O=C(Nc1ccccc1N1CCOCC1)c1ccc2nc[nH]c2c1 | 1130 nM |
| CCOC(=O)c1c(C)c(C(=O)Nc2cc(F)ccc2F)c(C)n1C | 12600 nM |
| O=C(NCc1ccco1)c1nn2c(C(F)(F)F)cc(-c3cccs3)nc2c1Br | 3250 nM |
| CCCCCCC(=O)N(O)C1CC(=O)N(c2ccc(Br)cc2)C1=O (configuration not stated) | 689 nM |
| Cc1ccc2c(c1)cc(CN(C(=O)N1CCOCC1)C1CCCC1)c1nnnn12 | 4120 nM |
| Cc1cccn2c(=O)c3cc(C(=O)NCc4ccco4)c(=N)n(CCc4ccccc4)c3nc12 | 1170 nM |
| C=CCn1c(SCc2c(C)noc2C)nc2ccccc2c1=O | 163 nM |

* * *

Tested on: D54 ERlucT glycosylation luciferase reporter, luminescence, 24 h
Assay: N-linked glycosylation inhibitors, luciferase reporter, dose response, D54 ERlucT cells, luminescence, cherry-picks (AID 624491);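 further: signal gain reflects blocked N-linked glycosylation of a luciferase reporter; actives raise luciferase signal so AC26 marks activators of the reporter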
Overview of reported AC26 across a group of compounds:

| compound | assayed_target | AC26 |
| --- | --- | --- |
| c1ccc(N=Nc2ccc3cccccc2-3)cc1 | D54 ERlucT glycosylation luciferase reporter, luminescence, 24 h | 2.06 µM |
| COc1ccc(Nc2cc(C)nc(-n3nc(C)cc3C)n2)cc1 | D54 ERlucT glycosylation luciferase reporter, luminescence, 24 h | 0.193 µM |
| O=C(CN1C(=O)NC(c2ccccc2)(c2ccccc2)C1=O)Nc1ccc(N2CCOCC2)cc1 | D54 ERlucT glycosylation luciferase reporter, luminescence, 24 h | 4.2 µM |
| Cc1ccc(NC2=NC3(CCCC3)N=C(N)N2)c(C)c1 | D54 ERlucT glycosylation luciferase reporter, luminescence, 24 h | 4.23 µM |
| CC=Cc1cc2c(c(=O)o1)C(=O)C(O)C(C)O2 (stereo unspecified) | D54 ERlucT glycosylation luciferase reporter, luminescence, 24 h | 5.3 µM |
| CN(Cc1ccccc1)c1nc2c(c(=O)[nH]c(=O)n2C)n1CCCc1ccccc1 | D54 ERlucT glycosylation luciferase reporter, luminescence, 24 h | 2.83 µM |

* * *

Test system: D54 ERlucT glycosylation luciferase reporter, luminescence, 24 h
Assay: N-linked glycosylation inhibitors, luciferase reporter, dose response, D54 ERlucT cells, luminescence, cherry-picks (AID 624491);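 further: signal gain reflects blocked N-linked glycosylation of a luciferase reporter; actives raise luciferase signal so AC26 marks activators of the reporter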
Overview of reported AC26 across a group of molecules:

| mol_smiles | assayed_target | AC26 |
| --- | --- | --- |
| COC(=O)c1ccc(C)c(NC(=O)CN(c2cc(OC)ccc2OC)S(C)(=O)=O)c1 | D54 ERlucT glycosylation luciferase reporter, luminescence, 24 h | 641 nM |
| Cc1noc(C)c1-c1ccc(C(=O)NCCc2ccccc2)c2occc12 | D54 ERlucT glycosylation luciferase reporter, luminescence, 24 h | 4410 nM |
| COc1cc(/C=C/C(=O)/C=C(O)/C=C/c2ccc(O)c(OC)c2)ccc1O | D54 ERlucT glycosylation luciferase reporter, luminescence, 24 h | 2090 nM |
| CCOc1cc(/C=C/C(=O)c2ccc3c(c2)OCCO3)ccc1OCC(=O)N(C)C | D54 ERlucT glycosylation luciferase reporter, luminescence, 24 h | 3700 nM |
| COc1ccc2[nH]c3c(N4CCC(O)(c5cccc(C(F)(F)F)c5)CC4)ncnc3c2c1 | D54 ERlucT glycosylation luciferase reporter, luminescence, 24 h | 2740 nM |

* * *

Let's look at some molecules and their measured AC26.
Test system: D54 ERlucT glycosylation luciferase reporter, luminescence, 24 h
Assay: N-linked glycosylation inhibitors, luciferase reporter, dose response, D54 ERlucT cells, luminescence, cherry-picks (AID 624491);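 further: signal gain reflects blocked N-linked glycosylation of a luciferase reporter; actives raise luciferase signal so AC26 marks activators of the reporter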
parameter_measured: AC26

| molecule | measurement |
| --- | --- |
| NNC(=O)c1oc2nc(-c3ccco3)cc(-c3ccco3)c2c1N | 4260 nM |
| Cc1nc([N+](=O)[O-])c(Br)n1Cc1ccc(Cl)c(Cl)c1 | 885 nM |
| Oc1cc(Nc2ccccc2)cc2cccnc12 | 1030 nM |
| COc1ccc2c(c1)OC[C@H]1[C@H]2N2C(=O)c3cc(Br)ccc3NC(=O)[C@@]2(C)[C@H]1c1ccccc1 | 976 nM |
| CCCOC(=O)c1[nH]c2c(c1C)C(=O)CC(c1cccs1)C2 (stereo unspecified) | 623 nM |
| CC(C)CCN(C(=O)Cc1ccc(Cl)c(Cl)c1)c1c(N)n(Cc2ccccc2)c(=O)[nH]c1=O | 2080 nM |
| CCCOc1ccccc1C1CC(=O)NC2=C1C(=O)CCC2 (stereo unspecified) | 2250 nM |
| Cc1ccc(CC(=O)NCc2ccc(F)cc2)cc1 | 824 nM |
| COC(=O)c1cc(OC)c(OC)cc1NC(=S)NC(=O)c1ccco1 | 607 nM |
| CCn1c(SCC(=O)N/N=C/c2ccc(C)s2)nc2ccccc21 | 2200 nM |
| CCc1ccc(N2CC(C(=O)Nc3ccccc3N3CCCC3)CC2=O)cc1 (stereo unspecified) | 5370 nM |
